Tested on: Wolbachia pipientis
Assay: Anti-Wolbachia Cell-Based Screen
Assay type: functional
Design: scale not given: in the data most compounds retested in dose-response had high values
Details: 5 µM
The campaign covered roughly 48,000 compounds. About 13,000 (27%) showed an effect of 50% or more. The list shows a part of the results.
observable: Percent Effect (%)
One number for each entry, in %.

Consider the following illustrative entries.
compound: O=C(NCCc1cccs1)N1CCCC2(CCC(=O)N(C3CC3)C2)C1 (centres undefined)
Percent Effect / %: -0.08952
--
compound: Cc1cc(C)n(CCCN(CCN2CCOCC2)Cc2ccco2)n1
Percent Effect / %: 110.7
--
compound: CSCCCN(CCN1CCOCC1)Cc1ccco1
Percent Effect / %: 114.6
--
compound: CN1Cc2ccccc2CC2(CCN(C(=O)[C@H]3CCCO3)CC2)C1=O
Percent Effect / %: -50.23
--
compound: CCNC(=O)CCC(=O)N1CCC(Oc2cc(C)ccc2C)CC1
Percent Effect / %: 108

I need Percent Effect for every entry listed below, if you could help.
1. O=C([C@H]1CCCO1)N1CCC2(CC1)Cc1ccccc1CNC2=O
2. Cc1ccccc1OC1CCN(C(=O)CNC(=O)N(C)C)CC1
3. C[C@@H]1CN(C2(C(=O)N3CCOCC3)Cc3ccccc3C2)C[C@H](C)O1
4. CCc1noc(CCC(=O)N2CCC(c3ccn[nH]3)C2)n1 (centres undefined)
5. COC(=O)Cn1c(=O)nc2n1C(=O)N(c1ccc(Cl)cc1)C2

*A*
1. -31.67
2. 13.16
3. -3.118
4. 80.59
5. 5.835

====

Tested on: Wolbachia pipientis
Experiment: Anti-Wolbachia Cell-Based Screen
Format: functional
Set-up: scale not given: in the data most compounds retested in dose-response had high values
Settings: 5 µM
Out of some 48,000 compounds screened, about 13,000 (27%) showed an effect of 50% or more. Some of the results follow.
Label rule, in plain words: Percent Effect of 10% and up is Criterion met, under 10% is Criterion not met.

Answered cases to consult:
compound: CC(c1nc(C2CC2)no1)N1CCN(Cc2cccc(F)c2F)CC1 (stereo unspecified)
assigned_category: Criterion met

compound: Fc1cccc(CN2CCC(c3noc(-c4ccncc4)n3)CC2)c1F
assigned_category: Criterion met

compound: CCc1cc(NC2CCN(Cc3ccccc3F)CC2)n2nccc2n1
assigned_category: Criterion met

*Q* Entry CN1CCN(CC[C@@H]2CC[C@H](O)[C@@H](C(=O)Nc3ccccc3)O2)CC1 : is its Percent Effect no less than 10%?
*A* Criterion not met

*Q* Entry Fc1ccc(CN2CCCC(c3nnc(-c4cnccn4)o3)C2)cc1F (stereo unspecified) : is its Percent Effect no less than 10%?
*A* Criterion not met

*Q* Entry Fc1ccccc1CN1CCC(c2n[nH]c(C3CC3)n2)CC1 : is its Percent Effect no less than 10%?
*A* Criterion not met

====

System: Wolbachia pipientis
Assay: Anti-Wolbachia Cell-Based Screen
Format: functional
Set-up: scale not given: in the data most compounds retested in dose-response had high values
Conditions: 5 µM
About 13,000 (27%) of roughly 48,000 compounds showed an effect of 50% or more. This is one part of the list.
observable: Percent Effect (%)
One number for each entry, in %.

Consider the following illustrative entries.
compound: O=C(c1ccccn1)N1CCc2c(nc(-c3ccncc3)[nH]c2=O)C1
Percent Effect / %: -0.04653
//
compound: CC(C)CCn1ccc(NC2CCSC2)n1 (stereo unspecified)
Percent Effect / %: -1.669
//
compound: CN(C)C(=O)Cc1ccccc1NCc1cccc(F)c1F
Percent Effect / %: -19.09
//
compound: Cc1ccc(C(=O)NCc2ccccc2S(=O)(=O)N(C)CCO)cc1F
Percent Effect / %: -6.958
//
compound: CCOc1ccc(NC(=O)c2cc3c([nH]c2=O)CCC3)cc1
Percent Effect / %: 108.3
//
compound: Cc1cnc(C(=O)N2CCc3c(nc(-c4ccncc4)[nH]c3=O)C2)cn1
Percent Effect / %: -3.986

I need Percent Effect for every entry listed below, if you could help.
1. CCOC(=O)c1ccc(NC(=O)c2cc3c([nH]c2=O)CCCC3)cc1
2. CCOCCn1nnc(C2(NC(=O)c3ccccc3)CCCC2)n1
3. Cc1ncc(CN2CCc3c(nc(-c4ccccn4)[nH]c3=O)C2)n1C
4. COCc1cc(N(C)Cc2cnccn2)nc(C(C)(C)C)n1
5. CC(C)[C@@H]1CN(Cc2ccccc2C#N)C[C@H]1C(=O)O

*A*
[-8.889, -1.903, 100.8, 4.515, -3.453]
